RECORDED_ENDPOINT: logP

Solved entries:
> print(dat)
                               query.smiles  meas.value
1        CCCCNC(=O)C=Cc1ccc([N+](=O)[O-])o1        2.36
2        COC(=O)C(=Cc1ccc(C)o1)[N+](=O)[O-]        2.44
3           COC(=O)C=Cc1ccc([N+](=O)[O-])o1        1.65
4  CCOC(=O)C(=Cc1ccc([N+](=O)[O-])o1)C(=O)OCC         2.5
5           CNC(=O)C=Cc1ccc([N+](=O)[O-])o1        0.98

a = N#CC=Cc1ccc([N+](=O)[O-])o1
b = CC(C)COC(=O)C=Cc1ccc([N+](=O)[O-])o1
[ask] Looking only at measured logP, which entry is lower, a or b ? # reply format: chosen label
[reply] a
(a: 1.05, b: 3.14)

====

RECORDED_ENDPOINT: logP

Some solved entries appear below for comparison.
> print(dat)
                                   compound  recorded.endpoint  meas.value
1  CCC(C)NC(=O)C=Cc1ccc([N+](=O)[O-])o1 (configuration not stated)               logP        2.28
2  COC(=O)C(=Cc1ccc(C(=O)OC)o1)[N+](=O)[O-]               logP        1.87
3  CCC(C)OC(=O)C=Cc1ccc([N+](=O)[O-])o1 (configuration not stated)               logP        3.09
4        COC(=O)C(=Cc1ccc(I)o1)[N+](=O)[O-]               logP           3
5        CCCCOC(=O)C=Cc1ccc([N+](=O)[O-])o1               logP        2.83

a = C=Cc1ccc([N+](=O)[O-])o1
b = CC(C)OC(=O)C=Cc1ccc([N+](=O)[O-])o1
[ask] Hi! Which is lower in terms of logP, the first one a or the second one b ? Which one? Tell me its label.
[reply] a
(a: 1.61, b: 2.64)

====

RECORDED_ENDPOINT: logP

Check out these entries, answers already filled in.
> print(dat)
                             query.smiles  recorded.endpoint  meas.value
1         COC(=O)C(=Cc1ccco1)[N+](=O)[O-]               logP        1.88
2  CC(C)(C)OC(=O)C=Cc1ccc([N+](=O)[O-])o1               logP        3.06
3       CCCNC(=O)C=Cc1ccc([N+](=O)[O-])o1               logP        1.86
4       CCCOC(=O)C=Cc1ccc([N+](=O)[O-])o1               logP        2.67
5      CN(C)C(=O)C=Cc1ccc([N+](=O)[O-])o1               logP        0.82

1 = O=C(O)C=Cc1ccc([N+](=O)[O-])o1
2 = O=[N+]([O-])c1ccc(C=CS(=O)(=O)c2ccccc2)o1
3 = COC(=O)C(=Cc1ccc(Br)o1)[N+](=O)[O-]
[ask] Sort these compounds on logP so the largest reading comes first. Submit the labels in the order that the ranking request calls for.
[reply] 3, 2, 1
